molecular target: human full-length MKNK1 (Homo sapiens, UniProt Q9BUB5, T385D); construct: GST (N); assay: MKNK1 kinase high ATP assay (TR-FRET); settings: high ATP (2 mM), after preincubation with MKNK1; compounds of the present invention (Table 1a)
Sequence (Q9BUB5 1-424 isoform Q9BUB5-2 T344D): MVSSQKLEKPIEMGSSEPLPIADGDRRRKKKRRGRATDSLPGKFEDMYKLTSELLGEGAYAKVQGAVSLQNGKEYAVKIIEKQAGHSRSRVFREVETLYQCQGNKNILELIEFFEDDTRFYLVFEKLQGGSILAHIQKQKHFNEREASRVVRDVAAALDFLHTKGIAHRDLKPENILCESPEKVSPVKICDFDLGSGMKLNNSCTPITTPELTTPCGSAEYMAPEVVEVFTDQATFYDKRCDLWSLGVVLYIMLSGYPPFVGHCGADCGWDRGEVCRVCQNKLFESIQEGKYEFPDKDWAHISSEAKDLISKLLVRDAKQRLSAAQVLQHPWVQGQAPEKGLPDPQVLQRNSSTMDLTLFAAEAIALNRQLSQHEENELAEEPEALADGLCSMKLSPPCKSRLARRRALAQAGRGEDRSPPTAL
pIC50: −log10 of the molar value.
Could you label it satisfied if measured pIC50 is 8 or higher, and not satisfied otherwise?

# compound, label
measured = [
    ("CC[C@]1(C(=O)N(C)OC)CCc2c(sc3ncnc(Nc4cc5cn[nH]c5cc4OC)c23)C1", "satisfied"),
    ("COCC1(OC)CCc2c(sc3ncnc(Nc4ccc5[nH]ncc5c4)c23)C1 (single isomer, unassigned) [Example 38]", "not satisfied"),
    ("[N-]=[N+]=NCC1CCc2c(sc3ncnc(Nc4ccc5[nH]ncc5c4)c23)C1 (racemic)", "not satisfied"),
    ("COc1cc2[nH]ncc2cc1Nc1ncnc2sc3c(c12)CC[C@@](C)(C(=O)N1CCOC[C@H]1C)C3", "not satisfied"),
    ("COCC1(OC)CCc2c(sc3ncnc(Nc4cc5cn[nH]c5cc4Cl)c23)C1 (single isomer, unassigned) [Example 46]", "not satisfied"),
    ("CC[C@@]1(C(=O)N(C)CCOC)CCc2c(sc3ncnc(Nc4cc5cn[nH]c5cc4OC)c23)C1", "not satisfied"),
    ("N[C@@H](CCO)C(=O)NCC1CCc2c(sc3ncnc(Nc4ccc5[nH]ncc5c4)c23)C1 (mixture of isomers)", "not satisfied"),
    ("CC[C@@]1(C(=O)N2CCOCC2)CCc2c(sc3ncnc(Nc4cc5cn[nH]c5cc4OC)c23)C1", "not satisfied"),
    ("COc1cc2[nH]ncc2cc1Nc1ncnc2sc3c(c12)CC[C@](C)(C(=O)N(C)C)C3", "satisfied"),
    ("O=P(OCC1CCc2c(sc3ncnc(Nc4ccc5[nH]ncc5c4)c23)C1)(Oc1ccccc1)Oc1ccccc1 (racemic)", "not satisfied"),
]

----------
# Lookup of reported IC50 keyed by entry
target: human full-length MKNK1 (Homo sapiens, UniProt Q9BUB5, T385D); construct: GST (N); assay: MKNK1 kinase high ATP assay (TR-FRET); conditions: high ATP (2 mM), after preincubation with MKNK1; compounds of the present invention (Table 1a)
parameter: IC50 (nM)

# compound, assayed target, unit of measurement, numeric result
measured = [
    ("COc1cc2[nH]ncc2cc1Nc1ncnc2sc3c(c12)CCC(N(C)C)C3 (racemic) [Example 36]", "human full-length MKNK1 (Homo sapiens, UniProt Q9BUB5, T385D)", "nM", 14.1),
    ("COc1cc2[nH]ncc2cc1Nc1ncnc2sc3c(c12)CC[C@@](C)(C(=O)N(C)OC)C3 [Example 59]", "human full-length MKNK1 (Homo sapiens, UniProt Q9BUB5, T385D)", "nM", 12.9),
    ("O=C(NCC1CCc2c(sc3ncnc(Nc4ccc5[nH]ncc5c4)c23)C1)[C@@H](O)Cc1ccccc1 (mixture of isomers) [Example 14]", "human full-length MKNK1 (Homo sapiens, UniProt Q9BUB5, T385D)", "nM", 17),
    ("CC(C)(O)C(=O)NCC1CCc2c(sc3ncnc(Nc4ccc5[nH]ncc5c4)c23)C1 (racemic) [Example 13]", "human full-length MKNK1 (Homo sapiens, UniProt Q9BUB5, T385D)", "nM", 12.4),
]

Each recorded value in this set is attributed to patent US20160159816A1.
